Tested on: Trichophyton rubrum
Assay: anti-fungal growth inhibition, T. rubrum
Assay type: cell-based
Conditions: Trichophyton rubrum, 168 h; T. rubrum, 50 μM, one week, 30° C., OD 510 nm; read-out: Inhibition rate (50 μM)
Assign YES to entries whose inhibition at 50 µM meets or exceeds 8%; assign NO to the rest.

• CCOC(=O)COc1ccc(CCc2cc(OCC(=O)OCC)cc(OCC(=O)OCC)c2)cc1 = NO
• O=C(Oc1ccc(CCc2cc(OC(=O)c3ccccc3)cc(OC(=O)c3ccccc3)c2)cc1)c1ccccc1 = NO
• C=CCOc1ccc(CCc2cc(OCC=C)cc(OCC=C)c2)cc1 = NO
• CC(C)(C)C(=O)Oc1ccc(CCc2cc(OC(=O)C(C)(C)C)cc(OC(=O)C(C)(C)C)c2)cc1 = NO
• CCCOc1ccc(CCc2cc(OCCC)cc(OCCC)c2)cc1 = YES
• CCCC(=O)Oc1ccc(CCc2cc(OC(=O)CCC)cc(OC(=O)CCC)c2)cc1 = YES
• COc1ccc(C(=O)Oc2ccc(CCc3cc(OC(=O)c4ccc(OC)cc4)cc(OC(=O)c4ccc(OC)cc4)c3)cc2)cc1 = NO
• O=C(Oc1ccc(CCc2cc(OC(=O)c3ccc(Cl)cc3)cc(OC(=O)c3ccc(Cl)cc3)c2)cc1)c1ccc(Cl)cc1 = NO
• O=C(Oc1ccc(CCc2cc(OC(=O)C3CCCC3)cc(OC(=O)C3CCCC3)c2)cc1)C1CCCC1 = NO
• Oc1ccc(/C=C/c2cc(O)cc(O)c2)cc1 [Trans-resveratrol, trans-resveratrol, reference compound] = YES
• C=CC(=O)Oc1ccc(CCc2cc(OC(=O)C=C)cc(OC(=O)C=C)c2)cc1 = YES
